# Target under test: T1, SNTG2, Q9NY99
# T1 sequence (Q9NY99 68-166, limits assumed, looked up): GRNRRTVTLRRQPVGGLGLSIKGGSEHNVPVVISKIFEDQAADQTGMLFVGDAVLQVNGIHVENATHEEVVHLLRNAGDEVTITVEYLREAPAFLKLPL
# Experiment: holdup assay
# Set-up: key: below the threshold = too weak to quantify, mostly under pKd 3.1 to 4
# Condition parameters: plain residues with an end cap or a label only (N-terminal biotin on a linker: ado-ado)
Entries and their measured pKd follow.
// no unit, no text: just the number

Sample answers from the record:
[[record]]
binder = "KKTPVSRSHL [SLC22A3, O75751]"
quantitative_readout = 3.48

[[record]]
binder = "THHRKIHTRV [ZNF599, Q96NL3]"
quantitative_readout = 4.13

[[record]]
binder = "PLPPEEESWV [GAS2L2, Q8NHY3]"
quantitative_readout = 4.24

[[record]]
binder = "WAKEKQHTRL [SLC17A1, Q14916]"
quantitative_readout = 4.15

[[record]]
binder = "SRPHTNETSL [MCC, P23508]"
quantitative_readout = 4.66


Task: Return pKd for the following binder: EPAKETTTNV [SLC2A3, P11169]
Result: 4.03

Task: Return pKd for the following binder: IQISELETNV [SLC1A7, O00341]
Result: 4.91
